molecular target: T1, histidine-tagged human Siglec-7 (NovoProtein) (human, UniProt Q9Y286 19-353); experiment: BLI, antibody captured
T1 construct: Bought protein; also called recombinant human Siglec-7; recombinant Siglec-7; not shown: histidine tag
T1 sequence (Q9Y286 19-353 limits assumed): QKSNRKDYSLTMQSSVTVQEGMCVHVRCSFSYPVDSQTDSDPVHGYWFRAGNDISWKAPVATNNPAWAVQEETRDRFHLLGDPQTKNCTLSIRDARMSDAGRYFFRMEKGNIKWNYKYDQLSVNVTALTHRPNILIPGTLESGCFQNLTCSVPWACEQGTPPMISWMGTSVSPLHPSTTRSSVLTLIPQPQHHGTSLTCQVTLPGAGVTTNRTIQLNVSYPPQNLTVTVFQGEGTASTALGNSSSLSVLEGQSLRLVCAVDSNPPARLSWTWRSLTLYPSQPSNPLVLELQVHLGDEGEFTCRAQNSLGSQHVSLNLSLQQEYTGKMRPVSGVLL
endpoint: pKd
pKd here is simply -log10 of the concentration when that concentration is written in mol/L.

Req: Identify measured pKd associated with S7AB-H8.43 (antibody, V domains shown, also called S7AB-H.43) VH: QVQLVQSGAEVKKPGASVKVSCKASGYAFTGYWMNWVRQAPGQGLEWIGRIFPGLGHTNYAQKFQGRATLTEDTSTSTAYMELSSLRSEDTAVYYCARDYSDYYFDYWGQGTLVTVSS VL: DIQMTQSPSSLSASVGDRVTITCRGSQDINTYLNWYQQKPGKAPKLLIYYTSRLHSGVPSRFSGSGSGTDYTLTISSLQPEDFATYYCQQGNILPWTFGQGTKLEIK
Resp: 9.59

Req: Identify measured pKd associated with S7AB-H8.45 (antibody, V domains shown) VH: QVQLVQSGAEVKKPGASVKVSCKASGYAFTEAWMNWVRQAPGQGLEWIGRIFPGYGHTNYAQKFQGRATLTEDTSTSTAYMELSSLRSEDTAVYYCARDYSDYYFDYWGQGTLVTVSS VL: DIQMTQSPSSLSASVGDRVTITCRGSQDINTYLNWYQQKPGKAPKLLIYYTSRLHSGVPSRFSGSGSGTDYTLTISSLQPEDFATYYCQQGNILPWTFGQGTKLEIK
Resp: 9.35

Req: Identify measured pKd associated with S7AB-H8.41 (antibody, V domains shown) VH: QVQLVQSGAEVKKPGASVKVSCKASGYAFTETWMNWVRQAPGQGLEWIGRIFPGLGHTNYAQKFQGRATLTEDTSTSTAYMELSSLRSEDTAVYYCARDYSDYYFDYWGQGTLVTVSS VL: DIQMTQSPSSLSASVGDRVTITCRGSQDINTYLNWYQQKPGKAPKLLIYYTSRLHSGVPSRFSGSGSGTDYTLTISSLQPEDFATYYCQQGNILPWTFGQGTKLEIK
Resp: 9.27

Req: Identify measured pKd associated with S7AB-H8.42 (antibody, V domains shown) VH: QVQLVQSGAEVKKPGASVKVSCKASGYAFTMAWMNWVRQAPGQGLEWIGRIFPGYGHTNYAQKFQGRATLTEDTSTSTAYMELSSLRSEDTAVYYCARDYSDYYFDYWGQGTLVTVSS VL: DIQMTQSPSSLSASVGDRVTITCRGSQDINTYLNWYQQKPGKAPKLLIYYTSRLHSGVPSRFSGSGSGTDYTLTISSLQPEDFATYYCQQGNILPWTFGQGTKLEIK
Resp: 9.90

Req: Identify measured pKd associated with S7AB-H8.16 (antibody, V domains shown) VH: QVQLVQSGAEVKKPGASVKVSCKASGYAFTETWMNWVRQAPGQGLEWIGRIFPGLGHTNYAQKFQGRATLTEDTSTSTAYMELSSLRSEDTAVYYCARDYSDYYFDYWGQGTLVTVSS VL: DIQMTQSPSSLSASVGDRVTITCRGSQDTNTYLNWYQQKPGKAPKLLIYYTSRLHSGVPSRFSGSGSGTDYTLTISSLQPEDFATYYCQQGNTLPWTFGQGTKLEIK
Resp: 8.60
